Just for reference, ChEMBL document CHEMBL2021760 is where these values come from.

Measured inhibition at 5 µM accompanies every entry in the list below.
- target of assay: CYP2B6 (Homo sapiens, UniProt P20813)
- Sequence (P20813 whole entry): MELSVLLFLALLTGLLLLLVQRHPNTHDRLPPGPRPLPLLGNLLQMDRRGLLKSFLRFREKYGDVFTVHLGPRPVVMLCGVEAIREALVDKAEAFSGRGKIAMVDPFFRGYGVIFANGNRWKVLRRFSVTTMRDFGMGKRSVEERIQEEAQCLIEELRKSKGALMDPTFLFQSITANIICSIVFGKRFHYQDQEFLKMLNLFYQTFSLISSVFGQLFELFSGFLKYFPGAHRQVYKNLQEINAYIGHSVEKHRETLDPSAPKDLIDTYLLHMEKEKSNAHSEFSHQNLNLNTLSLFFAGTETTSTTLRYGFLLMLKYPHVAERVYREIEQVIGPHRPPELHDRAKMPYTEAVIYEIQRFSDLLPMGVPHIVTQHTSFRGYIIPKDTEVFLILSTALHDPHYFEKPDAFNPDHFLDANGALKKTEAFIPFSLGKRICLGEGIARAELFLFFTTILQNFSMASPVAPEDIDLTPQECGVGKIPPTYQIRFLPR
- assay remarks: Inhibition of CYP2B6 at 5 uM
- Format: ADME
measure name: inhibition at 5 µM (%)

>>> number("c1ccc(-n2cc(-c3ccnc4ccccc34)cn2)cc1")
56
>>> number("CCN(CC)C(=O)Oc1ccc2c(-c3cnn(-c4ccccc4)c3)ccnc2c1")
61
>>> number("COc1ccc2c(-c3cnn(-c4ccccc4)c3)ccnc2c1")
35

----------
- assay remarks: Inhibition of benzodiazepine receptor
pIC50: −log10 of the molar value.
measure name: pIC50

>>> number("c1ccc(-n2cc(-c3ccnc4ccccc34)cn2)cc1")
5.51

----------
- target of assay: Melatonin receptor type 1A (Homo sapiens, UniProt P48039)
- Sequence (P48039 whole entry): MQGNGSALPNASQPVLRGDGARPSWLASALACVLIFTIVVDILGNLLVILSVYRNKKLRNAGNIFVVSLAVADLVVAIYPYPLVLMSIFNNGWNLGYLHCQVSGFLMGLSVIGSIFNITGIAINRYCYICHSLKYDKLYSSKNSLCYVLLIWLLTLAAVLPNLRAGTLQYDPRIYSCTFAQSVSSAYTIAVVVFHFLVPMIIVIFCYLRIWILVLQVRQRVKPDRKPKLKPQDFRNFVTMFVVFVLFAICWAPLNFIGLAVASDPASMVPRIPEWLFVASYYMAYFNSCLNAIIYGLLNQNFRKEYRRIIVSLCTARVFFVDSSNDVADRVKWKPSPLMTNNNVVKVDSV
- assay remarks: Agonist activity at MT1
pEC50: −log10 of the molar value.
measure name: pEC50

>>> number("c1ccc(-n2cc(-c3ccnc4ccccc34)cn2)cc1")
6.04

----------
- target of assay: Metabotropic glutamate receptor 4 (Homo sapiens)
- Sequence (Q14833 whole entry): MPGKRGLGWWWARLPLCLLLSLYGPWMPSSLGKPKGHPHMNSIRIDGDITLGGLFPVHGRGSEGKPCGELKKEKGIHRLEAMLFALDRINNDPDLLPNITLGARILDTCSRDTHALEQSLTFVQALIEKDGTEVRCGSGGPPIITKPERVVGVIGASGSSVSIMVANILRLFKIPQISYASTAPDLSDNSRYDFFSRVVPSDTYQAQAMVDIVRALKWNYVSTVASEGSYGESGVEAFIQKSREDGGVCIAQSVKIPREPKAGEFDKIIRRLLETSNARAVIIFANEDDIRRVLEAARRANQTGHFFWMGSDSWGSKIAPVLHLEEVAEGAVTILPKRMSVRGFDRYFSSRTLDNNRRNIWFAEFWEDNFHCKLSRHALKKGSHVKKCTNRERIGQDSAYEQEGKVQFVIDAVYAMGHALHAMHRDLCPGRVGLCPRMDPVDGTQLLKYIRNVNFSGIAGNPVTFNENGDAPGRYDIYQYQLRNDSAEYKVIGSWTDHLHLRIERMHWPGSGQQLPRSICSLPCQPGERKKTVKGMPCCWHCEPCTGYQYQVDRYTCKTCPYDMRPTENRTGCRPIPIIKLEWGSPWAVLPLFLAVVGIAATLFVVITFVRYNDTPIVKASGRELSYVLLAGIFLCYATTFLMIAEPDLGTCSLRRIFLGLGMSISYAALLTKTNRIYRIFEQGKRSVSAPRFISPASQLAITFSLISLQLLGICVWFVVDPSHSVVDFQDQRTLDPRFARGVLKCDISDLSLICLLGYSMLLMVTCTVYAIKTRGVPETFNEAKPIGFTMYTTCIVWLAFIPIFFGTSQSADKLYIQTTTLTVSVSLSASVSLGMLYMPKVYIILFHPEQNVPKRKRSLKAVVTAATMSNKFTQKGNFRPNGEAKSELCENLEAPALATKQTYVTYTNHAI
- assay remarks: Positive allosteric modulation of human mGlu4 receptor expressed in BHK cells assessed as potentiation of glutamate-induced calcium mobilization by FLIPR analysis relative to PHCCC
- Assay type: functional, cell-based
Decision: Emax >= 40% yields true, all other cases yield false.

>>> class_name("c1csc(-n2cc(-c3ccnc4ccccc34)cn2)c1")
"true"
>>> class_name("Oc1ccc2c(-c3cnn(-c4ccccc4)c3)ccnc2c1")
"false"
>>> class_name("c1ccc(COc2ccc3c(-c4cnn(-c5ccccc5)c4)ccnc3c2)cc1")
"true"
>>> class_name("c1ccc(-n2cc(-c3ccnc4cc(OCCCN5CCOCC5)ccc34)cn2)cc1")
"true"
>>> class_name("c1ccc(-n2cc(-c3n[nH]c4ccccc34)cn2)cc1")
"true"
>>> class_name("c1ccc(-n2cc(-c3ccnc4cc(OCCCN5CCCC5)ccc34)cn2)cc1")
"false"
>>> class_name("OCCCOc1ccc2c(-c3cnn(-c4ccccc4)c3)ccnc2c1")
"false"
>>> class_name("CN(C)C(=O)Oc1ccc2c(-c3cnn(-c4ccccc4)c3)ccnc2c1")
"true"
>>> class_name("O=C(COc1ccc2c(-c3cnn(-c4ccccc4)c3)ccnc2c1)N1CCOCC1")
"false"
>>> class_name("CCNC(=O)Oc1ccc2c(-c3cnn(-c4ccccc4)c3)ccnc2c1")
"true"
>>> class_name("Cc1c(-c2ccnc3ccccc23)cnn1-c1ccccc1")
"true"
>>> class_name("Fc1cccc(-n2cc(-c3ccnc4ccccc34)cn2)c1")
"true"
>>> class_name("COCCCOc1ccc2c(-c3cnn(-c4ccccc4)c3)ccnc2c1")
"true"
>>> class_name("c1ccc(-n2cc(-c3ccnc4cc(OCCN5CCCC5)ccc34)cn2)cc1")
"false"
>>> class_name("c1ccc(-n2cc(-c3ncnc4ccccc34)cn2)cc1")
"false"
>>> class_name("c1ccc(-n2cc(-c3ccnc4cc(OCCN5CCCCC5)ccc34)cn2)cc1")
"true"
>>> class_name("c1ccc(-n2cc(-c3ccnc4c3CCC4)cn2)cc1")
"true"
>>> class_name("Cc1nn(-c2ccccc2)cc1-c1ccnc2ccccc12")
"true"
>>> class_name("c1ccc(-n2cc(-c3ccnc4ccccc34)cn2)cc1")
"true"
>>> class_name("FC(F)(F)c1ccc2c(-c3cnn(-c4ccccc4)c3)ccnc2c1")
"true"
>>> class_name("c1ccc(-n2cc(-c3ccnc4cc(OCCCN5CCCCC5)ccc34)cn2)cc1")
"false"
>>> class_name("COCCOc1ccc2c(-c3cnn(-c4ccccc4)c3)ccnc2c1")
"true"
